- Test system: L1210 cells
- Experimental Protocol: Inhibition of growth of L1210 cells in culture
- Type: cell-based, Murine
Numbered stars: 1 amine (or outer) side, 2 acyl side, 3 side chain; on linkers, the order of the positions; unused ones are H or OH. Bridge positions count the residues as written; N and C are the ends. Square brackets hold non-standard residues; d marks the D form. Peptide text beside a SMILES is read from it. I, II: the chains in the order shown. Actinocin(9to1) = Cc1c2oc3c(C)ccc(C(=O)[*:1])c3nc-2c(C(=O)[*:2])c(N)c1=O; NMeV = CN[C@H](C(=O)O)C(C)C; Sar = CNCC(=O)O
Measured Quantity: inhibition of growth of L1210 cells in culture; ID50 (nM)
Your answer is read as nM, so omit the unit and give the number.

In: Record request: inhibition of growth of L1210 cells in culture; ID50 value, item Cc1c2oc3c(C)c(OCC4CO4)cc(C(=O)NC4C(=O)NC(C(C)C)C(=O)N5CCCC5C(=O)N(C)CC(=O)N(C)C(C(C)C)C(=O)OC4C)c3nc-2c(C(=O)NC2C(=O)NC(C(C)C)C(=O)N3CCCC3C(=O)N(C)CC(=O)N(C)C(C(C)C)C(=O)OC2C)c(N)c1=O [(S)-(-)-EPA, 7-(2,3-epoxypropoxy) actinomycin D]
Out: 56.8

In: Now this one: Cc1c2oc3c(C)c(OCC4CO4)cc(C(=O)NC4C(=O)NC(C(C)C)C(=O)N5CCCC5C(=O)N(C)CC(=O)N(C)C(C(C)C)C(=O)OC4C)c3nc-2c(C(=O)NC2C(=O)NC(C(C)C)C(=O)N3CCCC3C(=O)N(C)CC(=O)N(C)C(C(C)C)C(=O)OC2C)c(N)c1=O [(R)-(+)-EPA, 7-(2,3-epoxypropoxy) actinomycin D]
Out: 23.1

In: Entry Cc1c2oc3c(C)ccc(C(=O)N[C@@H]4C(=O)N[C@H](C(C)C)C(=O)N5CCC[C@H]5C(=O)N(C)CC(=O)N(C)[C@@H](C(C)C)C(=O)O[C@@H]4C)c3nc-2c(C(=O)N[C@@H]2C(=O)N[C@H](C(C)C)C(=O)N3CCC[C@H]3C(=O)N(C)CC(=O)N(C)[C@@H](C(C)C)C(=O)O[C@@H]2C)c(N)c1=O [1b(AMD), Actinomycin D] (I: T[dV]P[Sar][NMeV] / II: T[dV]P[Sar][NMeV]; ester I:1-I:C, II:1-II:C; linker I:N-II:N via Actinocin(9to1)) please
Out: 60.1

In: Repeat for the following molecule: Cc1c2oc3c(C)c(OCC4CO4)cc(C(=O)NC4C(=O)NC(C(C)C)C(=O)N5CCCC5C(=O)N(C)CC(=O)N(C)C(C(C)C)C(=O)OC4C)c3nc-2c(C(=O)NC2C(=O)NC(C(C)C)C(=O)N3CCCC3C(=O)N(C)CC(=O)N(C)C(C(C)C)C(=O)OC2C)c(N)c1=O (racemic) [3b[(±)-EPA]] [7-(2,3-epoxypropoxy) actinomycin D]
Out: 28.7

---

- Test system: B16 melanoma
- Experimental Protocol: B16 melanoma implanted sc, drug iv (sc-iv) in BDF1 mice
- Format: in vivo
- Experimental Context: B16 sc implanted, drug iv day 1
Numbered stars: 1 amine (or outer) side, 2 acyl side, 3 side chain; on linkers, the order of the positions; unused ones are H or OH. Bridge positions count the residues as written; N and C are the ends. Square brackets hold non-standard residues; d marks the D form. Peptide text beside a SMILES is read from it. I, II: the chains in the order shown. Actinocin(9to1) = Cc1c2oc3c(C)ccc(C(=O)[*:1])c3nc-2c(C(=O)[*:2])c(N)c1=O; NMeV = CN[C@H](C(=O)O)C(C)C; Sar = CNCC(=O)O
What (surv) sixty day survivors/number of mice treated was measured for each of the following?

In: Which measured (surv) sixty day survivors/number of mice treated belongs to Cc1c2oc3c(C)c(OCC4CO4)cc(C(=O)NC4C(=O)NC(C(C)C)C(=O)N5CCCC5C(=O)N(C)CC(=O)N(C)C(C(C)C)C(=O)OC4C)c3nc-2c(C(=O)NC2C(=O)NC(C(C)C)C(=O)N3CCCC3C(=O)N(C)CC(=O)N(C)C(C(C)C)C(=O)OC2C)c(N)c1=O (racemic) [3b[(±)-EPA]] [7-(2,3-epoxypropoxy) actinomycin D] , tested on B16 melanoma?
Out: 0/9

In: Then this compound: Cc1c2oc3c(C)ccc(C(=O)N[C@@H]4C(=O)N[C@H](C(C)C)C(=O)N5CCC[C@H]5C(=O)N(C)CC(=O)N(C)[C@@H](C(C)C)C(=O)O[C@@H]4C)c3nc-2c(C(=O)N[C@@H]2C(=O)N[C@H](C(C)C)C(=O)N3CCC[C@H]3C(=O)N(C)CC(=O)N(C)[C@@H](C(C)C)C(=O)O[C@@H]2C)c(N)c1=O [1b(AMD), Actinomycin D] (I: T[dV]P[Sar][NMeV] / II: T[dV]P[Sar][NMeV]; ester I:1-I:C, II:1-II:C; linker I:N-II:N via Actinocin(9to1))
Out: 0/9

In: Could you do the same for COc1cccc2c1C(=O)c1c(O)c3c(c(O)c1C2=O)C[C@@](O)(C(=O)CO)C[C@@H]3O[C@H]1C[C@H](N)[C@H](O)[C@H](C)O1 [adriamycin, reference compound] , please?
Out: 1/9

In: Moving on to Cc1c2oc3c(C)c(OCC4CO4)cc(C(=O)NC4C(=O)NC(C(C)C)C(=O)N5CCCC5C(=O)N(C)CC(=O)N(C)C(C(C)C)C(=O)OC4C)c3nc-2c(C(=O)NC2C(=O)NC(C(C)C)C(=O)N3CCCC3C(=O)N(C)CC(=O)N(C)C(C(C)C)C(=O)OC2C)c(N)c1=O [(R)-(+)-EPA, 7-(2,3-epoxypropoxy) actinomycin D]
Out: 1/9

---

Field: % ILS (percent increase in median life time vs controls). Provide a value for each of the compounds that follow.
- Test system: P388/ADR
- Experimental Protocol: Antitumor activity against ip implanted P388/ADR in CDF1 mice
- Type: in vivo
- Experimental Context: ip qd 1-9, at optimal dose
- Experimental: ^e Optimal dose of drugs. ^ f Median survival time of tumor bearing mice. ^g Percent increase in median life time in days of drugtreated dying animals vs those of controls; (survivors), number of 60 days survivors/number of animals tested in the group. In order to examine a broader spectrum of activity, these optical isomers are tested in two other mouse leukemia cell lines in vivo. One cell line, P388/ADR, is a derivative of the above P388/S made resistant to intercalating agents like […].
Numbered stars: 1 amine (or outer) side, 2 acyl side, 3 side chain; on linkers, the order of the positions; unused ones are H or OH. Bridge positions count the residues as written; N and C are the ends. Square brackets hold non-standard residues; d marks the D form. Peptide text beside a SMILES is read from it. I, II: the chains in the order shown. Actinocin(9to1) = Cc1c2oc3c(C)ccc(C(=O)[*:1])c3nc-2c(C(=O)[*:2])c(N)c1=O; NMeV = CN[C@H](C(=O)O)C(C)C; Sar = CNCC(=O)O
Report the value in % with no unit label.

In: If you can, please state the reported % ILS (percent increase in median life time vs controls) value of Cc1c2oc3c(C)c(OCC4CO4)cc(C(=O)NC4C(=O)NC(C(C)C)C(=O)N5CCCC5C(=O)N(C)CC(=O)N(C)C(C(C)C)C(=O)OC4C)c3nc-2c(C(=O)NC2C(=O)NC(C(C)C)C(=O)N3CCCC3C(=O)N(C)CC(=O)N(C)C(C(C)C)C(=O)OC2C)c(N)c1=O (racemic) [3b[(±)-EPA]] [7-(2,3-epoxypropoxy) actinomycin D] .
Out: 344

In: Also Cc1c2oc3c(C)ccc(C(=O)N[C@@H]4C(=O)N[C@H](C(C)C)C(=O)N5CCC[C@H]5C(=O)N(C)CC(=O)N(C)[C@@H](C(C)C)C(=O)O[C@@H]4C)c3nc-2c(C(=O)N[C@@H]2C(=O)N[C@H](C(C)C)C(=O)N3CCC[C@H]3C(=O)N(C)CC(=O)N(C)[C@@H](C(C)C)C(=O)O[C@@H]2C)c(N)c1=O [1b(AMD), Actinomycin D] (I: T[dV]P[Sar][NMeV] / II: T[dV]P[Sar][NMeV]; ester I:1-I:C, II:1-II:C; linker I:N-II:N via Actinocin(9to1)) ?
Out: 33

In: What do you get for CO[C@@]12[C@H](COC(N)=O)C3=C(C(=O)C(C)=C(N)C3=O)N1C[C@@H]1N[C@@H]12 [mitomycin, mitomycin C, reference compound] ?
Out: 400

In: # iterate: Cc1c2oc3c(C)c(OCC4CO4)cc(C(=O)NC4C(=O)NC(C(C)C)C(=O)N5CCCC5C(=O)N(C)CC(=O)N(C)C(C(C)C)C(=O)OC4C)c3nc-2c(C(=O)NC2C(=O)NC(C(C)C)C(=O)N3CCCC3C(=O)N(C)CC(=O)N(C)C(C(C)C)C(=O)OC2C)c(N)c1=O [(S)-(-)-EPA, 7-(2,3-epoxypropoxy) actinomycin D]
Out: 377

In: Follow-up entry: Cc1c2oc3c(C)c(OCC4CO4)cc(C(=O)NC4C(=O)NC(C(C)C)C(=O)N5CCCC5C(=O)N(C)CC(=O)N(C)C(C(C)C)C(=O)OC4C)c3nc-2c(C(=O)NC2C(=O)NC(C(C)C)C(=O)N3CCCC3C(=O)N(C)CC(=O)N(C)C(C(C)C)C(=O)OC2C)c(N)c1=O [(R)-(+)-EPA, 7-(2,3-epoxypropoxy) actinomycin D]
Out: 400

Numbers sourced from patent US5155209A.
